Each recorded value in this set is attributed to ChEMBL document CHEMBL2434876.

Reported pIC50 is given for each of the following compounds.
- System: Leishmania donovani
- test-protocol: Antileishmanial activity against Leishmania donovani MHOM/IN/80/Dd8 amastigotes infected in mouse J774A1 cells assessed as parasite growth inhibition after 72 hrs by luciferase reporter gene assay
- Assay type: functional, organism-based
- run-parameters: MHOM/IN/80/Dd8, J774.A1, 72 h
For clarity, pIC50 is expressed as the negative log10 of concentration in mol/L.

Some compounds with recorded pIC50:
> print(dat)
                            chemical.smiles   val
1  OC/C=C/c1cc(-c2cccc(F)c2)c2cc(Cl)c(F)cc2n1  5.75
2                 OC/C=C/c1ccc2cc(Cl)ccc2n1  6.07
3                  OC/C=C/c1ccc2cc(F)ccc2n1  4.75
4       OC/C=C/c1cc(N2CCOCC2)c2cc(Cl)ccc2n1  5.36
5       CN(C)c1cc(/C=C/CO)nc2cc(F)c(Cl)cc12  4.64

Item: `OC/C=C/c1cc(-c2ccc(F)cc2)c2cc(Cl)ccc2n1` Test system: Leishmania donovani Read-out: pIC50 Value: ?
5.80

Tell me reported pIC50 for `FC/C=C/c1ccc2ccccc2n1` , tested with Leishmania donovani.
5.18

Short answer please: pIC50, Leishmania donovani, entry `OC/C=C/c1ccc2c(F)c(Cl)ccc2n1`
5.39

Item: `OC/C=C/c1cc(-c2ccc(F)cc2)c2cc(Cl)c(F)cc2n1` Test system: Leishmania donovani Read-out: pIC50 Value: ?
5.84

----------
- test-protocol: Cytotoxicity against African green monkey Vero cells after 72 hrs by MTT assay
- Assay type: cell-based
- run-parameters: chlorocebus sabaeus
CC50 at 72 h: recorded values
Just the number please, in µM, no unit attached.

Below are worked cases with known answers.
> print(dat)
                          chemical.smiles   val
1                   FC/C=C/c1ccc2ccccc2n1  38.6
2  OC/C=C/c1cc(N2CCOCC2)c2cc(Cl)c(F)cc2n1  41.2
3     OC/C=C/c1cc(N2CCOCC2)c2cc(Cl)ccc2n1  46.9
4     CN(C)c1cc(/C=C/CO)nc2cc(F)c(Cl)cc12  41.6

Now look at this one.
If you can, please state the reported CC50 at 72 h value of `CCCc1ccc2ccccc2n1` .
126

----------
- Test system: Leishmania donovani
- test-protocol: Antileishmanial activity against Leishmania donovani MHOM/IN/80/Dd8 amastigotes infected in mouse J774A1 cells assessed as parasite growth inhibition after 72 hrs by luciferase reporter gene assay
- Assay type: functional, organism-based
- run-parameters: MHOM/IN/80/Dd8, J774.A1, 72 h
Sorting guide: entries reporting IC50 beneath 6 µM go in the rule met pile, the rest go in the rule not met pile.

Some solved cases for reference:
> print(dat)
                            chemical.smiles    target.under.test  answer.label
1                         CCCc1ccc2ccccc2n1  Leishmania donovani  rule not met
2  COc1ccc(-c2cc(/C=C/CO)nc3ccc(Cl)cc23)cc1  Leishmania donovani      rule met
3                       OCC#Cc1ccc2ccccc2n1  Leishmania donovani  rule not met
4                 O=C(O)/C=C/c1ccc2ccccc2n1  Leishmania donovani  rule not met
5    OC/C=C/c1cc(N2CCOCC2)c2cc(Cl)c(F)cc2n1  Leishmania donovani      rule met

Decide: IC50 of `OC/C=C/c1cc(Oc2ccc(F)cc2)c2cc(Cl)ccc2n1` strictly below 6 µM?
rule met
